- TARGET SYSTEM: SARS-CoV-2 S-2P ectodomain trimer (ancestral) (SARS-CoV-2 (ancestral, MN908947), stabilised)
PROPERTY: binding result

[[record]]
binder = "hr2.090 (antibody, V domains shown) VH: EVQLLESGGGLVQPGGSLRLSCAASGVTFSRYAMSWVRQAPGKGLEWVSTISGGGGGTYYADSVKGRFTISRDNSKNTLYLQMNSLRAEDTAVYYCATLLTVPGPYYFEYWGQGTLVTVSS VL: EIVLTQSPGTLSLSPGERATLSCRASQSVSSSYLAWYQQKPGQAPRLLIYGASSRATGIPDRFSGSGSGTDFTLTISRLESEDFAVYYCQHSRFTFGPGTRVDIK"
result = "binds"

[[record]]
binder = "fp.009 (antibody, V domains shown) VH: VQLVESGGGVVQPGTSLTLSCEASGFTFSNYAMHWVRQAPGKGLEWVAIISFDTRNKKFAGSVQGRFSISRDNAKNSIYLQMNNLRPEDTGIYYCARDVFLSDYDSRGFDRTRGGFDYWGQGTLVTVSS VL: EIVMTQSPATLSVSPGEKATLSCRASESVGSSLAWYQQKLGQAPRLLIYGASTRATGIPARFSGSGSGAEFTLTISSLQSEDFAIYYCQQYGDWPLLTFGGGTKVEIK"
result = "binds"

